TARGET_ENTITY: T1, human CXCR6 (human, UniProt O00574 1-342)
T1 construct: also called hu-CXCR6; wild type human CXCR6
TEST_DESCRIPTION: screening on cells overexpressing CXCR6, one single concentration, yes/no
OUTCOME_MEASURE: binding result

# return recorded binding result for entry COXs-7E6 (antibody, V domains shown, Mouse-derived; tested at the screening stage) VH: EVQLMESGGGLVKPGGSRKLSCAASGFTFSDHGMHWVRQAPEKGLEWIAYINSGSSTIHYADSVKGRFTISRDNAKNTLFLHMTSLRSEDTAMYYCVRPGFAYWGQGTLITVSA VL: DIVMTQTPLTLSITVGQSAFISCRSSQSLLHRNGNTYLNWFLQRPGQSPQLLVYEIFERKSGVPDRFSGSGSGTDFTLKISRVEAEDLGVYYCMQATYEPLTFGAGTKLELK binds

# return recorded binding result for entry COXs-11H4 (antibody, V domains shown, Mouse-derived; tested at the screening stage) VH: EVQLVESGGGLVQPKGSLKLSCAASGFTFNTYAMNWVRQVPGKGLEWIARMRSESKNFATYYADSVKDRFTISRDDSESILYLQMNNLKTEDTGMYYCVRQGNFDVWGTGTTVTVSS VL: DVVMTQAPLSLSVSLGDQASISCRSGQNIVHTDGNTYLYWSLQKPGQSPNLLIYKVSNRFSGVPDRFSGSGSGTDFTLKINRVEAEDMGVYYCFQLTHVPYTFGGGTKLEIK binds

# return recorded binding result for entry Beacon2-E5 (antibody, V domains shown, Mouse-derived; tested at the screening stage) VH: EVQLVESGGGLVQPKGSLKLSCAASGFSFNTYAMNWVRQAPGKGLEWVARIRTKRNNYVKFYADSVKGRFTISRDDSQSMLYLQMNNLKAEDTAIYYCVRQGAFWGQGTLVTVSA VL: DVVLTQTPLSLPVNIGDQASISCKSTKSLLNSDGFTYLDWYLQKPGQSPQLLIYLVSNRFSGVPDRFSGSGSGTDFTLRISRVEAEDLGVYYCFQSNYLPYTFGGGTKLEIK binds

This collection of values is drawn from patent US20240239907A1.
